# subject of test: MAPK14 (human)
# experiment description: Inhibition of LPS Stimulated TNF Production by U937 Cells
# measurement parameters: concentration not given here
readout name: inhibition (%)

Which inhibition reading was recorded for the molecule Cc1noc(C)c1C(=O)N[C@@H](C)c1[nH]nc(-c2ccc(F)cc2)c1-c1ccncc1 ?
32

I: O=C(NCc1[nH]nc(-c2ccc(F)cc2)c1-c1ccncc1)c1c(F)ccc(F)c1F
II: CC(C)(C)C(=O)NCCc1[nH]nc(-c2ccc(F)cc2)c1-c1ccncc1
Identify the entry with the smaller inhibition: I or II . Let me know the label of the one you choose.
I

a: O=S(=O)(NCCCc1[nH]nc(-c2ccc(F)cc2)c1-c1ccncc1)C(F)(F)F
b: O=C(N[C@H](Cc1ccccc1)c1[nH]nc(-c2ccc(F)cc2)c1-c1ccncc1)c1ccncc1
Recorded inhibition values differ for a and b ; which one is higher? Let me know the label of the one you choose.
a
(a: 68%, b: 25%)

I: C[C@H](NC(=O)Nc1cccc(F)c1)c1[nH]nc(-c2ccc(F)cc2)c1-c1ccncc1
II: C[C@H](NS(=O)(=O)c1ccc(Cl)s1)c1[nH]nc(-c2ccc(F)cc2)c1-c1ccncc1
Identify the entry with the smaller inhibition: I or II . Let me know the label of the one you choose.
I
(I: 22%, II: 95%)

1: O=C(NCc1[nH]nc(-c2ccc(F)cc2)c1-c1ccncc1)[C@H]1CCCN1C(=O)OCC1c2ccccc2-c2ccccc21
2: C[C@H](NS(=O)(=O)c1cccc2nonc12)c1[nH]nc(-c2ccc(F)cc2)c1-c1ccncc1
3: O=C(NCCc1[nH]nc(-c2ccc(F)cc2)c1-c1ccncc1)Nc1ccc(Cl)c(Cl)c1
Number of molecules to sort: 3. Sort criterion: inhibition, ascending. Would you mind listing the labels in the order requested?
1, 3, 2

----------
# subject of test: MAPK14 (human) (UniProt Q16539)
# Sequence (Q16539 whole entry, looked up): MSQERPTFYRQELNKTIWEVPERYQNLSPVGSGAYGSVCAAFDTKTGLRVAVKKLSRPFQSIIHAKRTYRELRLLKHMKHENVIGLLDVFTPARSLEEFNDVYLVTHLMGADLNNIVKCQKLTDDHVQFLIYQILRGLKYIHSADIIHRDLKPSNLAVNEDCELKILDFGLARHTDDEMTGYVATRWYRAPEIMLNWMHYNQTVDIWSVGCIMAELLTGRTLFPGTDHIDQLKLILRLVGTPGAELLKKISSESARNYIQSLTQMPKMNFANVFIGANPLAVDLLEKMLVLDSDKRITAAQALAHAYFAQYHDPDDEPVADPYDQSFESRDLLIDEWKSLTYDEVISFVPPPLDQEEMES
# experiment description: Inhibition of LPS Stimulated TNF Production by U937 Cells
# measurement parameters: concentration not given here
readout name: inhibition (%)

Solved entries (count: 5):
Query inhibition on MAPK14 (human) (UniProt Q16539) for O=C(NCCc1[nH]nc(-c2ccc(F)cc2)c1-c1ccncc1)c1ccc(F)cc1C(F)(F)F
29

Query inhibition on MAPK14 (human) (UniProt Q16539) for C[C@@H](NC(=O)c1c(F)cccc1F)c1[nH]nc(-c2ccc(F)cc2)c1-c1ccncc1
83

Query inhibition on MAPK14 (human) (UniProt Q16539) for O=C(NCc1[nH]nc(-c2ccc(F)cc2)c1-c1ccncc1)c1ccc(F)c(C(F)(F)F)c1
22

Query inhibition on MAPK14 (human) (UniProt Q16539) for O=C(NCCc1[nH]nc(-c2ccc(F)cc2)c1-c1ccncc1)c1cccc(Cl)c1Cl
11

Query inhibition on MAPK14 (human) (UniProt Q16539) for CCCCS(=O)(=O)N[C@H](C)c1[nH]nc(-c2ccc(F)cc2)c1-c1ccncc1
45

1: O=C(NCc1[nH]nc(-c2ccc(F)cc2)c1-c1ccncc1)c1ccc(Cl)nc1
2: C[C@H](NC(=O)c1ccc(F)cc1F)c1[nH]nc(-c2ccc(F)cc2)c1-c1ccncc1
3: C[C@@H](NC(=O)c1ccc(I)cc1)c1[nH]nc(-c2ccc(F)cc2)c1-c1ccncc1
4: COc1ccc2[nH]c3c(c2c1)CCN(C(=O)Cn1nc(-c2ccc(F)cc2)c(-c2ccncc2)c1C)C3
Number of molecules to sort: 4. Sort criterion: inhibition, ascending. Would you mind listing the labels in the order requested?
4, 1, 3, 2

A: Cc1c(-c2ccncc2)c(-c2ccc(F)cc2)nn1CC(=O)Nc1ccc(CCC(=O)c2cccnc2)cc1
B: C[C@H](NC(=O)c1c(F)cccc1C(F)(F)F)c1[nH]nc(-c2ccc(F)cc2)c1-c1ccncc1
Recorded inhibition values differ for A and B ; which one is higher? Let me know the label of the one you choose.
B

a: Cc1c(Cl)cccc1S(=O)(=O)NCc1[nH]nc(-c2ccc(F)cc2)c1-c1ccncc1
b: C[C@@H](NC(=O)c1c(F)cccc1C(F)(F)F)c1[nH]nc(-c2ccc(F)cc2)c1-c1ccncc1
Recorded inhibition values differ for a and b ; which one is higher? Let me know the label of the one you choose.
b
(b: 86%, a: 15%)

I: C[C@H](NS(=O)(=O)c1ccc(-c2ccon2)s1)c1[nH]nc(-c2ccc(F)cc2)c1-c1ccncc1
II: O=S(=O)(NCc1[nH]nc(-c2ccc(F)cc2)c1-c1ccncc1)c1cccc(Cl)c1Cl
Identify the entry with the smaller inhibition: I or II . Let me know the label of the one you choose.
II
(II: 30%, I: 95%)

----------
# subject of test: MAPK14 (human) (UniProt Q16539)
# experiment description: Inhibition of LPS Stimulated TNF Production by U937 Cells
# measurement parameters: concentration not given here
readout name: inhibition (%)

Solved entries (count: 3):
Query inhibition on MAPK14 (human) (UniProt Q16539) for C[C@@H](NS(=O)(=O)c1ccccc1Br)c1[nH]nc(-c2ccc(F)cc2)c1-c1ccncc1
80

Query inhibition on MAPK14 (human) (UniProt Q16539) for C[C@@H](NC(=O)c1ccccn1)c1[nH]nc(-c2ccc(F)cc2)c1-c1ccncc1
24

Query inhibition on MAPK14 (human) (UniProt Q16539) for C[C@@H](NS(=O)(=O)c1cccc2cccnc12)c1[nH]nc(-c2ccc(F)cc2)c1-c1ccncc1
71

I: O=C(NCc1[nH]nc(-c2ccc(F)cc2)c1-c1ccncc1)c1c(F)cccc1C(F)(F)F
II: CN(C)CCNC(=O)NCCCc1[nH]nc(-c2ccc(F)cc2)c1-c1ccncc1
III: O=C(NCCc1[nH]nc(-c2ccc(F)cc2)c1-c1ccncc1)NC(=O)c1ccccc1
Number of compounds to sort: 3. Sort criterion: inhibition, ascending. Would you mind listing the labels in the order requested?
II, III, I

P: CN(C)C(=O)NCCc1[nH]nc(-c2ccc(F)cc2)c1-c1ccncc1
Q: COc1ccccc1CCNC(=O)Cn1nc(-c2ccc(F)cc2)c(-c2ccncc2)c1C
R: O=S(=O)(NCCc1[nH]nc(-c2ccc(F)cc2)c1-c1ccncc1)c1ccc(F)cc1
S: O=C(NCCc1[nH]nc(-c2ccc(F)cc2)c1-c1ccncc1)N[C@@H]1C[C@@H]1c1ccccc1
Number of compounds to sort: 4. Sort criterion: inhibition, ascending. Would you mind listing the labels in the order requested?
R, S, Q, P

A: CCNC(=O)NCc1[nH]nc(-c2ccc(F)cc2)c1-c1ccncc1
B: CNC(=O)CC[C@H](NC(=O)c1ccncc1)c1[nH]nc(-c2ccc(F)cc2)c1-c1ccncc1
C: C[C@H](NS(=O)(=O)c1ccccc1C(F)(F)F)c1[nH]nc(-c2ccc(F)cc2)c1-c1ccncc1
D: COc1ccc(Br)cc1S(=O)(=O)N[C@H](C)c1[nH]nc(-c2ccc(F)cc2)c1-c1ccncc1
Please list these compounds in decreasing order of inhibition. Would you mind listing the labels in the order requested?
D, C, A, B

I: O=C(NCCc1[nH]nc(-c2ccc(F)cc2)c1-c1ccncc1)c1ccc(Cl)cc1
II: CCc1ccc(S(=O)(=O)N[C@H](C)c2[nH]nc(-c3ccc(F)cc3)c2-c2ccncc2)cc1
III: CC1(C)[C@H]2CC[C@@]1(CCS(=O)(=O)NCc1[nH]nc(-c3ccc(F)cc3)c1-c1ccncc1)C(=O)C2
Number of compounds to sort: 3. Sort criterion: inhibition, ascending. Would you mind listing the labels in the order requested?
III, I, II
(III: 11%, I: 29%, II: 92%)

----------
# subject of test: MAPK14 (human)
# experiment description: Inhibition of LPS Stimulated TNF Production by U937 Cells
readout name: IC50 (nM)

Solved entries (count: 8):
Which IC50 reading was recorded for the compound COc1cccc(C(=O)NCCCc2[nH]nc(-c3ccc(F)cc3)c2-c2ccncc2)c1 ?
790

Which IC50 reading was recorded for the compound N#Cc1cc(-c2c[nH]nc2-c2ccc(F)cc2)ccn1 ?
298

Which IC50 reading was recorded for the compound O=S(=O)(NCc1[nH]nc(-c2ccc(F)cc2)c1-c1ccncc1)c1ccc(OC(F)(F)F)cc1 ?
3630

Which IC50 reading was recorded for the compound CCCNC(=O)N[C@@H](C)c1[nH]nc(-c2ccc(F)cc2)c1-c1ccncc1 ?
38000

Which IC50 reading was recorded for the compound Cc1ccc(-c2[nH]nc(C)c2-c2ccncc2)c(C)c1 ?
1050

Which IC50 reading was recorded for the compound Cc1n[nH]c(-c2ccc3c(c2)OCO3)c1-c1ccncc1 ?
1690

Which IC50 reading was recorded for the compound Cc1c(-c2ccncc2)c(-c2ccc(F)cc2)nn1CC(=O)NCCc1ccc(Oc2ccccc2)cc1 ?
780

Which IC50 reading was recorded for the compound Cc1n[nH]c(-c2ccc(N(C)C)cc2)c1-c1ccncc1 ?
99

I: O=C(NCc1[nH]nc(-c2ccc(F)cc2)c1-c1ccncc1)c1ccc(F)c(F)c1
II: Fc1ccc(-c2n[nH]cc2-c2ccnc(NC3CCN(Cc4ccccc4)CC3)c2)cc1
III: CN(C)CCNc1cc(-c2c[nH]nc2-c2ccc(F)cc2)ccn1
IV: CS(=O)(=O)NCc1[nH]nc(-c2ccc(F)cc2)c1-c1ccncc1
Please list these compounds in decreasing order of IC50. Would you mind listing the labels in the order requested?
IV, I, II, III
(IV: 5000 nM, I: 1010 nM, II: 543 nM, III: 259 nM)

a: Cn1nc(-c2ccc(F)cc2)c(-c2ccncc2)c1Br
b: CC(=O)O[C@H](C)C(=O)NCCCc1[nH]nc(-c2ccc(F)cc2)c1-c1ccncc1
Recorded IC50 values differ for a and b ; which one is higher? Let me know the label of the one you choose.
a
(a: 1400 nM, b: 570 nM)

a: Fc1ccc(-c2[nH]nc(-c3ccccc3)c2-c2ccncc2)cc1
b: Cc1cnccc1-c1cn(C)nc1-c1ccc(F)cc1
Identify the entry with the smaller IC50: a or b . Let me know the label of the one you choose.
a
(a: 77 nM, b: 757 nM)

These entries and their values trace back to the Kinase Knowledgebase extract (Sharma et al. 2016).
